Biological target: T1, Human ST2 (human, UniProt Q01638 19-328, limits assumed)
T1 construct: also called human ST2 protein; Interleukin 1 receptor-like 1
T1 sequence (looked up): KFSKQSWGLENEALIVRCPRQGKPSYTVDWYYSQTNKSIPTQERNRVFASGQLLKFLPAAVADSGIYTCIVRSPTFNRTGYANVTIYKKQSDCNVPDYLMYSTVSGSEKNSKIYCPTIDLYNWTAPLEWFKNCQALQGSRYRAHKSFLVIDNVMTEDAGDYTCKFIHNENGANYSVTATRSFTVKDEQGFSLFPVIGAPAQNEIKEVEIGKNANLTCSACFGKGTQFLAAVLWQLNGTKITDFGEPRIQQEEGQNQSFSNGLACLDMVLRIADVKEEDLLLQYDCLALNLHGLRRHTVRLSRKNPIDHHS
Test: SPR (Carterra), antibody immobilized, ST2 analyte
// label = 1 if kon is not less than 200000 M⁻¹ s⁻¹, otherwise -1

Solved entries (count: 3):
1) Human ST2 IgG1 Antibody 83 (antibody, V domains shown, IgG1; also called ST2 Antibody 83) VH: EVQLLESGGGLVKPGGSLRLSCAASGFTFSSYWMSWVRQAPGKGLEWVSAIGTAGDTYYPGSVKGRFTISRDDSKNTLYLQMNSLKTEDTAVYYCAILRRDKVWPFDYWGQGTLVTVSS VL: DIQMTQSPSSLSASVGDRVTITCRASQSISSHLHWYQQKPGKAPKLLIYAASSLQSGVPSRFSGSGSGTDFTLTISSLQPEDFATYYCQQSYSSPVTFGGGTKVEIKR	1
2) Human ST2 IgG1 Antibody 32 (antibody, V domains shown, IgG1; also called ST2 Antibody 32) VH: EVQLLESGGGLVQPGGSLRLSCAASGFTFSNSDMNWVRQAPGKGLEWVSFISSSSGYTYYADSVKGRFTISRDNSKNTLYLQMNSLRAEDTAVYYCARANNNWNFYFDYWGQGTLVTVSS VL: DIQMTQSPSSLSASVGDRVTITCRASQSINNWLAWYQQKPGKAPKLLIYSASSLQSGVPSRFSGSGSGTDFTLTISSLQPEDFATYYCQQSYDTPITFGQGTKVEIKR	1
3) Human ST2 IgG1 Antibody 67 (antibody, V domains shown, IgG1; also called ST2 Antibody 67) VH: QVQLVQSGAEVKKPGASVKVSCKASGGTFSSYAISWVRQAPGQGLEWMGRINPNSGGTVYAQKFQGRVTMTRDTSTSTVYMELSSLRSEDTAVYYCARDTSIAARLNPDYYYYYGMDVWGQGTTVTVSS VL: DIQMTQSPSSLSASVGDRVTITCRASQSISSWLAWYQQKPGKAPKLLIYAASNLQSGVPSRFSGSGSGTDFTLTISSLQPEDFATYYCQQSYSTPVTFGQSTRLEIKR	-1

Continue with the binder presented below.
Query: Textbook exercise: given the entry Human ST2 IgG1 Antibody 35 (antibody, V domains shown, IgG1; also called ST2 Antibody 35) VH: QVQLVQSGAEVKKPGASVKVSCKASAYTFTSYGISWLRQAPGQGLEWMGWINPNSGNTGYAHKFQGRVTMTRDTSTSTVYMELSSLRSEDTAVYYCARGGSGWPTWGQGTLVTVSS VL: DIQMTQSPSSLSASVGDRVTITCQASQDISNYLNWYQQKPGKAPKLLIYGASSLQSGVPSRFSGSGSGTDFTLTISSLQPEDFATYYCQQANTFPFTFGPGTKVDIKR , state whether its kon is greater than or equal to 200000 M⁻¹ s⁻¹.
Result: -1
